System: A2780cisR cells
Assay: MTT cytotoxicity assay, A2780cisR
Assay type: cell-based, human
Conditions: IC50(A2780cisR)/IC50(A2780)
Kindly return condition met if reported RF (resistance factor) is no lower than 3; return condition not met if it is lower.

- [Cl][Cu][S]C(=NN=Cc1ccc(CN2CCOCC2)cn1)N1CCCC1 [complex 3, [Cu(L^3)Cl]]: condition not met

Query: Say whether [Cl][Cu][S]C(=NN=Cc1ccc(CN2CCOCC2)cn1)N1CCOCC1 [complex 4, [Cu(L^4)Cl]] shows RF (resistance factor) of 3 or more.
Response: condition met

Query: Say whether CSC(=NN=Cc1ccc(CN2CCOCC2)cn1)[NH][Cu][Cl] [complex 6, [Cu(L^6)Cl]] shows RF (resistance factor) of 3 or more.
Response: condition not met

* * *

System: Staphylococcus aureus CECT 86 (ATCC 12600)
Assay: MIC microdilution, S. aureus
Format: cell-based
Conditions: planktonic cells, growth inhibited at 50%
Here, each record is paired with measured S. aureus MIC50 data.
State just the number; it will be interpreted in µg/mL.

- CN(C)C(=NN=Cc1ccc(CN2CCOCC2)cn1)[S][Cu][Cl] [complex 2, [Cu(L^2)Cl]]: 2
- [Cl][Cu][S]C(=NN=Cc1ccc(CN2CCOCC2)cn1)Nc1ccccc1 [complex 5, [Cu(L^5)Cl]]: 3
- [Cl][Cu][S]C(=NN=Cc1ccc(CN2CCOCC2)cn1)N1CCOCC1 [complex 4, [Cu(L^4)Cl]]: 5
- NC(=NN=Cc1ccc(CN2CCOCC2)cn1)[S][Cu][Cl] [complex 1, [Cu(L^1)Cl]]: 100

Query: What value of S. aureus MIC50 on Staphylococcus aureus CECT 86 (ATCC 12600) does [Cl][Cu][S]C(=NN=Cc1ccc(CN2CCOCC2)cn1)N1CCCC1 [complex 3, [Cu(L^3)Cl]] have?
Response: 3

* * *

Assay: n-octanol/water distribution coefficient, shake-flask
Format: physicochemical
Details: pH 7.4; n-octanol/buffered aqueous solution, pH 7.40, UV-vis; read-out: log D7.4
parameter-measured: logD
The response must contain the number and no unit.

Sample records with logD:
* CN(C)C(=S)N/N=C/c1ccc(CN2CCOCC2)cn1 | 0.51
* CSC(=N)NN=Cc1ccc(CN2CCOCC2)cn1 | 0.84

Query: Field request: logD | item: NC(=S)NN=Cc1ccc(CN2CCOCC2)cn1
Response: 0.46

* * *

Assay: Cyclic voltammetry, redox potentials
Assay type: physicochemical
Settings: first reduction step, DMSO, vs NHE (in brackets)
parameter-measured: E1/2 Red1 (DMSO) vs NHE

* CN(C)C(=NN=Cc1ccc(CN2CCOCC2)cn1)[S][Cu][Cl] [complex 2, [Cu(L^2)Cl]] | –0.16 V
* [Cl][Cu][S]C(=NN=Cc1ccc(CN2CCOCC2)cn1)N1CCOCC1 [complex 4, [Cu(L^4)Cl]] | –0.16 V
* [Cl][Cu][S]C(=NN=Cc1ccc(CN2CCOCC2)cn1)N1CCCC1 [complex 3, [Cu(L^3)Cl]] | –0.16 V

* * *

Parameter 'readout' = MIC; parameter 'system' = Staphylococcus aureus CECT 86 (ATCC 12600).
State just the number; it will be interpreted in µg/mL.

Sample records with MIC:
• S=C(NN=Cc1ccc(CN2CCOCC2)cn1)Nc1ccccc1 = 300
• O=C(O)c1cn(C2CC2)c2cc(N3CCNCC3)c(F)cc2c1=O [CPX, ciprofloxacin, reference compound] = 1

Read the next record carefully.
Query: Field request: MIC | item: CN(C)C(=S)N/N=C/c1ccc(CN2CCOCC2)cn1
Response: 400
